- Target: HA of B/Malaysia/2506/04 (Victoria) (influenza B virus)
- Test Name: cell-based or functional assay
Readout: VNA titer (nM)

binder="SD1087 (VHH) VHH: EVQLVESGGGLVQPGGSLRLSCVISGLSLDTYAVGWFRQAPGKEREGITCISSGHGMTYYADSVKGRFTVSTDNAKNTVYLQMNGLQPEDTARYYCATESRYYCSDNWPAPQRYIYWGQGTQVTVSS" readout="VNA titer" measurement_qualifier== measured=79.1
binder="SD1083 (VHH) VHH: EVQLVESGGGLVQPGGSLRLSCAATGFTLENKAIGWFRQTPGSEREGVLCISKSGSWTYYTDSMRGRFTISRDNAENTVYLQMDSLKPEDTAVYYCATTTAGGGLCWDGTTFSRLASSWGQGTQVTVSS" readout="VNA titer" measurement_qualifier== measured=294
binder="SD1086 (VHH) VHH: EVQLVESGGGLVQAGGSLRLSCTASGSISSIDYMRWYRQYPGKHRELVATITSGGAADSRDSVKGRFTVSRGNAANTMYLQMNNLKPEDTAVYYCNAYGLEIGAHWGRGTQVTVSS" readout="VNA titer" measurement_qualifier=> measured=1000
binder="SD1084 (VHH) VHH: EVQLVESGGGLVQPGGSLKLSCAASGFTFSTSWMYWLRQAPGKGLEWVSVINTDGGTYYADSVKDRFTISRDNAKDTLYLQMSSLKSEDTAVYYCAKDWGGPEPTRGQGTQVTVSS" readout="VNA titer" measurement_qualifier== measured=34.9
